- tested.target: PD-1/PD-L1 (Homo sapiens)
- Sequence (Q9NZQ7 19-238 limits assumed): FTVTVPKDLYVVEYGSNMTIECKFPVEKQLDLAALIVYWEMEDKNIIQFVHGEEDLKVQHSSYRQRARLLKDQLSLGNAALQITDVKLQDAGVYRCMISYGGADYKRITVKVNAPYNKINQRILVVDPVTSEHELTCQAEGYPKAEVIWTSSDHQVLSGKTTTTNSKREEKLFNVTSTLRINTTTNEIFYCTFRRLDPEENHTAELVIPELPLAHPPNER
- measurement.protocol: PD-1/PD-L1 biochemical protein-protein interaction assay (ALPHA)
- conditions.used: 0.3 nM His tagged PD-L1, 2.5 nM biotinylated Fc-PD-1, 60 minutes at 25° C., read-out: IC50 PD-L1-PD-1 Alpha IC50-mono PD-L1-fcP-D1
property: IC50 (nM)

>  <structure.string>
Cc1c(COc2cc(OCc3cncc(C#N)c3)c(CN3CCCC[C@H]3C(=O)O)cc2Cl)cccc1-c1cccc(-c2ccc(OCCNCCO)cc2)c1C

>  <result.units>
nM

>  <IC50>
0.064

$$$$
>  <structure.string>
COc1cc(-c2cccc(-c3cccc4c3CC[C@@H]4Oc3nc(OC)c(CNC[C@@H]4CCC(=O)N4)cc3Cl)c2Cl)nc(Cl)c1CNC[C@@H]1CCC(=O)N1

>  <result.units>
nM

>  <IC50>
0.341

$$$$
>  <structure.string>
Cc1c(COc2cc(OCc3cncc(C#N)c3)c(CNC[C@@H](O)CC(=O)O)cc2Cl)cccc1-c1cccc(-c2ccc(OC[C@@H](N)CO)cc2)c1C

>  <result.units>
nM

>  <IC50>
0.311

$$$$
>  <structure.string>
COc1nc(-c2cccc(-c3cccc(COc4nc(OCc5cncc(C#N)c5)c(CN5CCCC[C@H]5C(=O)O)cc4Br)c3Cl)c2Cl)ccc1C1=NCCN1

>  <result.units>
nM

>  <IC50>
0.07

$$$$
>  <structure.string>
CNC(=O)c1cc(-c2cccc(-c3cccc(COc4cc(OCc5cncc(C#N)c5)c(CNC[C@@H](O)CC(=O)O)cc4Cl)c3C)c2C)ccc1OCCNCCO

>  <result.units>
nM

>  <IC50>
0.325

$$$$
>  <structure.string>
C=CCOc1nc(OCc2cccc(-c3cccc(COc4nc(OCC=C)c(CNC[C@@H](O)CC(=O)O)cc4Br)c3C)c2C)c(Br)cc1CNC[C@@H](O)CC(=O)O

>  <result.units>
nM

>  <IC50>
2.2

$$$$

[P] COc1nc(-c2cccc(-c3cccc4c3CC[C@@H]4Oc3nc(OC)c(CNC[C@@H](O)CC(=O)O)cc3Cl)c2Cl)ccc1CNC[C@@H]1CCC(=O)N1
[Q] COc1nc(OCc2cccc(-c3cccc(COc4ccc(CNC[C@H](C)O)c(OC)n4)c3C)c2C)ccc1CNC[C@H](C)O
(Q) Select the item whose IC50 value is smaller, choosing between P and Q . In your reply, give the label of the chosen option.
(A) P
